Measurement target: CDK1/cyclin B (Homo sapiens, UniProt P06493)
Sequence (P06493 whole entry): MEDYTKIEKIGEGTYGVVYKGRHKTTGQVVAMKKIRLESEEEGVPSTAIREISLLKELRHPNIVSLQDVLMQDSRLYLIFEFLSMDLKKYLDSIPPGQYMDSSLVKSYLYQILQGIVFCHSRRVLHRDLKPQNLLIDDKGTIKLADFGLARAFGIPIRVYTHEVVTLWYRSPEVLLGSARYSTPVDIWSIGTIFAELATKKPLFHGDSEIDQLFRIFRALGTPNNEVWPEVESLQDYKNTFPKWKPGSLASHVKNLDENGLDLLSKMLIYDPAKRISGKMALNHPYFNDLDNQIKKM
Sequence (P14635 whole entry partner): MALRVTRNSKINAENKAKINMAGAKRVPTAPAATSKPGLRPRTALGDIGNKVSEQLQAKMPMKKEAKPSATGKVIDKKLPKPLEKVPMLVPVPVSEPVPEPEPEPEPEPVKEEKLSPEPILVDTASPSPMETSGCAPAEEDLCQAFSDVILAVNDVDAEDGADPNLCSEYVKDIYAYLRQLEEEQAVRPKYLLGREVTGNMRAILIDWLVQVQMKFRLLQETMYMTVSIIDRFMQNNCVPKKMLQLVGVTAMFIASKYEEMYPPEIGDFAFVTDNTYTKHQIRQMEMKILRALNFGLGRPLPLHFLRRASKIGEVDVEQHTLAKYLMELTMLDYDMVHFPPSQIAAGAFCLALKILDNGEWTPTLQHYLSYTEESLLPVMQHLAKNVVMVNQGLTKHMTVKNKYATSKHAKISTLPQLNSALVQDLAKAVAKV
Method summary: In vitro multi-kinase activity, IC50
Source text: The study evaluates the IC50 values (in nM) of Compound 1 in comparison to FDA approved CDK 4/6 inhibitors Comparator 1, Comparator 2 and Comparator 3, which represent treatment advances for HR+ HER^2-metastatic breast cancer. IC50 value is a quantitative measure indicating the concentration needed to inhibit the listed kinase by 50%.
Parameter measured: IC50

Fill in: CDK1/cyclin B (Homo sapiens, UniProt P06493) IC50 for CN1CCN(c2ccc(Nc3ncc4cc(C#N)c(=O)n(C5CCCC5)c4n3)cc2)CC1 [Compound 1] = 515 nM
